Assay: Beagle PK (pharmacokinetics)
Format: in vivo, beagle dogs
Conditions: whole blood; Beagle dog, PO 3 mg/kg, 0.5 hr; read-out: Blood drug concentration
Experimental: In this assay, the pharmacokinetic characteristics and ability to penetrate the blood-brain barrier of the compounds of the present application were assayed after administration of some of the compounds of the present application to SD rats, CD-1 mice or beagle dogs by single oral administration and intravenous injection. 1. […] Pharmacokinetic parameters were calculated using WinNonlin software. […]
Listing of entries alongside the reported concentration at 0.5 h.
The reply should contain only the number, in ng/mL.

Value of measured concentration at 0.5 h for the entry O=C(C1CCN(c2cc(-c3cc(OCCCO)ccc3F)ccn2)CC1)N1N=CCC1c1cc(F)cc(F)c1 (racemic) [Example 18] : 1060

Could you now consider this next molecule?
Value of measured concentration at 0.5 h for the entry CC(C)(O)COc1ccc(F)c(-c2ccnc(N3CCC(C(=O)N4N=CC[C@H]4c4cc(F)cc(F)c4)CC3)c2)c1 (racemic) [Example 42] : 1320

----------
assay: Rat PK&BBB (pharmacokinetics and brain penetration); format: in vivo, SD rats; conditions: Sprague-Dawley, rat, whole blood, po, 30 mg/kg, PO 30 mg/kg, 0.25 hr, read-out: Blood drug concentration
Listing of entries alongside the reported concentration at 0.25 h.
The reply should contain only the number, in ng/mL.

Answered examples (2):
Value of measured concentration at 0.25 h for the entry O=C(C1CCN(c2cc(-c3cc(OCCCO)ccc3F)ccn2)CC1)N1N=CCC1c1cc(F)cc(F)c1 (racemic) : 85.6

Value of measured concentration at 0.25 h for the entry O=C(C1CCN(c2cc(-c3cc(OCCCO)ccc3F)ccn2)CC1)N1N=CC[C@H]1c1cc(F)cc(F)c1 (racemic) : 185

---
Value of measured concentration at 0.25 h for the entry CC(C)(O)COc1ccc(F)c(-c2ccnc(N3CCC(C(=O)N4N=CC[C@H]4c4cc(F)cc(F)c4)CC3)c2)c1 (racemic) : 266

----------
Assay: Rat PK&BBB (pharmacokinetics and brain penetration)
Type: in vivo, SD rats
Conditions: Sprague-Dawley, rat, whole blood, po, 30 mg/kg, PO 30 mg/kg, 0 hr, read-out: Blood drug concentration
Description: In this assay, the pharmacokinetic characteristics and ability to penetrate the blood-brain barrier of the compounds of the present application were assayed after administration of some of the compounds of the present application to SD rats, CD-1 mice or beagle dogs by single oral administration and intravenous injection. 1. […] Pharmacokinetic parameters were calculated using WinNonlin software. […]
Property label: concentration at 0 h (ng/mL)
The reply should contain only the number, in ng/mL.

Answered examples (2):
Value of measured concentration at 0 h for the entry O=C(C1CCN(c2cc(-c3cc(OCCCO)ccc3F)ccn2)CC1)N1N=CCC1c1cc(F)cc(F)c1 (racemic) [Example 18] : 0

Value of measured concentration at 0 h for the entry O=C(C1CCN(c2cc(-c3cc(OCCCO)ccc3F)ccn2)CC1)N1N=CC[C@H]1c1cc(F)cc(F)c1 (racemic) [Example 40] : 0

Could you now consider this next compound?
Value of measured concentration at 0 h for the entry CC(C)(O)COc1ccc(F)c(-c2ccnc(N3CCC(C(=O)N4N=CC[C@H]4c4cc(F)cc(F)c4)CC3)c2)c1 (racemic) [Example 42] : 0
